Consider the following compounds; for each one, report its growth inhibition.
Experiment: NCI Yeast Anticancer Drug Screen. Data for the bub3 strain (AID 167)
Conditions: S. cerevisiae bub3 mutant strain, at 50.0 µM (retest, dose inferred, filed as 5.0), stronger effect = higher value
This is part of a sample that, as a whole, favours compounds with a hit. Of some 79,000 tested, about 15% had one in any assay.
Please state the figure in %; there is no need to write the unit.

[ask] For CN1C(c2ccccc2)CC(=NO)CC1c1ccccc1 (stereo not given) , what is its reported growth inhibition?
[reply] 23

[ask] For O=C1CCC(c2ccccc2)(C2(c3ccccc3)CCC(=O)O2)O1 (stereo not given) , what is its reported growth inhibition?
[reply] 21

[ask] For O=C(NCCCCCCNC(=O)n1cc(F)c(=O)[nH]c1=O)NCCCOCCOCCOCCOCCOCCOCCOCCOCCOCCOCCOCCOCCOCCOCCOCCOCCOCCOCCOCCOCCOCCCNC(=O)C(O)C(O)C(OC1OC(CO)C(O)C(O)C1O)C(O)CO (stereo not given) , what is its reported growth inhibition?
[reply] 4

[ask] For `Cc1cc(C)[nH]c(=O)n1` , what is its reported growth inhibition?
[reply] -2

[ask] For `CN(C)CCNC(=O)Cc1cc(O)c2c(c1O)C(=O)c1ccccc1C2=O` , what is its reported growth inhibition?
[reply] 16

[ask] For `Clc1ccc2c(c1)[nH]c1c2nc2ccccn21` , what is its reported growth inhibition?
[reply] 97

[ask] For `COc1ccccc1NC(=O)C(/C=N/C(=S)NCCNc1ccc(OC)c(OC)c1)=C(\C)O` , what is its reported growth inhibition?
[reply] -27

[ask] For `CC(=O)Nc1ccc(S(=O)(=O)N/N=C/c2ccc(C)cc2)cc1` , what is its reported growth inhibition?
[reply] -1

[ask] For `O=C(O)c1c2ccccc2nc2[nH]c(=O)[nH]c(=O)c12` , what is its reported growth inhibition?
[reply] -5

[ask] For `O=[N+]([O-])c1ccc(SSc2ccc([N+](=O)[O-])cc2)cc1` , what is its reported growth inhibition?
[reply] 99

[ask] For COC1/C=C\C=C(/C)C(=O)Nc2cc3nc4ccc(Br)cc4oc-3c(c2=O)CC(C)CC(OC)C(O)C(C)/C=C(\C)C1OC(N)=O (stereo not given) , what is its reported growth inhibition?
[reply] 97

[ask] For CC(=O)OC1CC2C(C)(C)C(=O)C=C[C@]2(C)C2CCC3(C)C(=CC(=O)C3c3ccoc3)[C@]12C (stereo not given in full) , what is its reported growth inhibition?
[reply] 58

[ask] For `CC1=NC(=Cc2ccc([N+](=O)[O-])cc2)C(=O)N1n1c(-c2ccccc2)nc2ccccc2c1=O` , what is its reported growth inhibition?
[reply] -2

[ask] For `O=C(C(=Cc1ccccc1)C(=O)c1ccccc1)c1ccccc1` , what is its reported growth inhibition?
[reply] 96

[ask] For C=CCc1c2c(ccc(=O)c1O)-c1c(cc(OC)c(OC)c1OC)CCC2NC(C)=O (stereo not given) , what is its reported growth inhibition?
[reply] 97

[ask] For `CCCCCCCCCCCCN` , what is its reported growth inhibition?
[reply] 98

[ask] For COC1CC2CCC(C)[C@](O)(O2)C(=O)C(=O)N2CCCCC2C(=O)OC(C(C)CC2CCC(O)C(OC)C2)CC(=O)C(C)C=C(C)C(OC(=O)CN(C)C)C(OC)C(=O)C(C)CC(C)/C=C/C=C/C=C\1C (stereo not given in full) , what is its reported growth inhibition?
[reply] 98

[ask] For `Nc1cc2c(cc1Cl)[nH]c(=O)c1cc(Cl)ccc12` , what is its reported growth inhibition?
[reply] 10

[ask] For `COC(=O)[C@]1(C)CCC[C@]2(C)c3ccc(C(C)C)cc3CC[C@@H]12` , what is its reported growth inhibition?
[reply] 43

[ask] For `Oc1ccc(/C=N/NC(=S)NN2CCOCC2)nc1` , what is its reported growth inhibition?
[reply] 93
